test: clinical; details: human, in vivo, po, Tmax
Items are presented alongside their recorded Tmax.
measured-parameter: Tmax (h)

                                   compound  measured_parameter  value_unit  quantitative_result
0  CCCCCOC(=O)Nc1nc(=O)n([C@@H]2O[C@H](C)[C@@H](O)[C@H]2O)cc1F [capecitabine, reference compound]                Tmax           h                    1
1  C[C@H]1O[C@@H](n2cc(F)c(=O)[nH]c2=O)[C@H](O)[C@@H]1O [5′-DFUR, 5′-deoxy-5-fluorouridine]                Tmax           h                    2
